test: Cmax in Sprague-Dawley rat at 3 mg/kg, iv and 3 mg/kg, po; type: ADME, organism-based; conditions: in vivo
Quantity Measured: Cmax (nM)
Express your answer in nM, writing the number without its unit.

Q: What value of measured Cmax is listed for CN(C)CCN(C)[C@H]1COc2ccccc2-c2c(C3CCCCC3)c3ccc(C(=O)O)cc3n2C1 ?
A: 500

---

assay: Terminal half life in dog at 1 mg/kg, iv and 2 mg/kg, po; format: ADME, organism-based, Canis lupus familiaris; conditions: in vivo
Quantity Measured: half-life (h)
Express your answer in h, writing the number without its unit.

Q: What value of measured half-life is listed for CN(C)CCN(C)[C@H]1COc2ccccc2-c2c(C3CCCCC3)c3ccc(C(=O)O)cc3n2C1 [MK-3281] ?
A: 6.1

---

assay: Plasma protein binding in rat; format: ADME, cell-free; conditions: read-out: PPB (converted)
Quantity Measured: fraction unbound
Just the number.

Q: What value of measured fraction unbound is listed for CN(C)CCN(C)[C@H]1COc2ccccc2-c2c(C3CCCCC3)c3ccc(C(=O)O)cc3n2C1 [MK-3281] ?
A: 0.03

---

test: Clearance in dog at 1 mg/kg, iv and 2 mg/kg, po; format: ADME, organism-based, Canis lupus familiaris; conditions: in vivo
Quantity Measured: clearance
Please append the unit to your numeric answer.

Q: What value of measured clearance is listed for CN(C)CCN(C)[C@H]1COc2ccccc2-c2c(C3CCCCC3)c3ccc(C(=O)O)cc3n2C1 ?
A: 7 mL/min/kg

---

test: Intrinsic clearance in human liver microsomes assessed per mg of protein presence of UDPGA; type: ADME, Microsome
Quantity Measured: microsomal CLint

Q: What value of measured microsomal CLint is listed for CN(C)CCN(C)[C@H]1COc2ccccc2-c2c(C3CCCCC3)c3ccc(C(=O)O)cc3n2C1 [MK-3281] ?
A: < 4 µL/min/mg

---

test system: Hepatitis C virus; test: Ratio of EC50 for HCV1b to EC50 for HCV1b in presence of 50% normal human serum; assay type: functional, Hepacivirus hominis, genotype 1b
Quantity Measured: Ratio EC50

Worked examples, 2 compounds total:
INSERT INTO measurements (compound, reported) VALUES
  ('CN(C)CC(=O)N(C)C1COc2ccccc2-c2c(C3CCCCC3)c3ccc(C(=O)O)cc3n2C1 (stereo not drawn)', 10),
  ('CCN(CCN(C)C)C1COc2ccccc2-c2c(C3CCCCC3)c3ccc(C(=O)O)cc3n2C1 (racemic)', 7);

Turning now to a further compound:
Q: Fill in the recorded Ratio EC50 for this compound, with Hepatitis C virus as test system: CN(C)CCNC1COc2ccccc2-c2c(C3CCCCC3)c3ccc(C(=O)O)cc3n2C1 (racemic)
A: 4

---

test: AUC in dog at 2 mg/kg, po; assay type: ADME, organism-based, Canis lupus familiaris; set-up: dose 2 mg/kg, route oral; details: plasma
Quantity Measured: AUC (µM·h)
Express your answer in µM·h, writing the number without its unit.

Q: What value of measured AUC is listed for CN(C)CCN(C)[C@H]1COc2ccccc2-c2c(C3CCCCC3)c3ccc(C(=O)O)cc3n2C1 [MK-3281] ?
A: 8.6

---

experiment: Oral bioavailability in dog at 2 mg/kg, po; type: ADME, organism-based, Canis lupus familiaris; settings: in vivo
Quantity Measured: bioavailability (%)
Express your answer in %, writing the number without its unit.

Q: What value of measured bioavailability is listed for CN(C)CCN(C)[C@H]1COc2ccccc2-c2c(C3CCCCC3)c3ccc(C(=O)O)cc3n2C1 ?
A: 78

---

Entries and their Cmax
assay: Cmax in Sprague-Dawley rat at 3 mg/kg, po; assay type: ADME, organism-based; set-up: dose 3 mg/kg, route oral; conditions: in vivo
Express your answer in nM, writing the number without its unit.

INSERT INTO results (molecule, quantity_measured, unit_name, reported) VALUES
  ('CN(C)CCN1CCn2c(c(C3CCCCC3)c3ccc(C(=O)O)cc32)-c2ccccc2C1', 'Cmax', 'nM', 200);

Q: What value of measured Cmax is listed for CN(C)CCNC1COc2ccccc2-c2c(C3CCCCC3)c3ccc(C(=O)O)cc3n2C1 (racemic) ?
A: 300

---

assay: Oral bioavailability in rhesus monkey at 4 mg/kg; assay type: ADME, organism-based, Macaca mulatta; conditions: in vivo
Quantity Measured: bioavailability (%)
Express your answer in %, writing the number without its unit.

Q: What value of measured bioavailability is listed for CN(C)CCN(C)[C@H]1COc2ccccc2-c2c(C3CCCCC3)c3ccc(C(=O)O)cc3n2C1 ?
A: 35

---

assay: Half life in Sprague-Dawley rat at 3 mg/kg, iv; format: ADME, organism-based; design: dose 3 mg/kg, route intravenous; conditions: in vivo
Entries and their half-life
Express your answer in h, writing the number without its unit.

INSERT INTO assay_data (compound, quantity_measured, reported) VALUES
  ('CN(C)CCNC1COc2ccccc2-c2c(C3CCCCC3)c3ccc(C(=O)O)cc3n2C1 (racemic)', 'half-life', 3);

Turning now to a further compound:
Q: What value of measured half-life is listed for CN(C)CCN1CCn2c(c(C3CCCCC3)c3ccc(C(=O)O)cc32)-c2ccccc2C1 ?
A: 1.6

---

Entries and their microsomal CLint
experiment: Intrinsic clearance in rat liver microsomes assessed per mg of protein; type: ADME, Microsome
Express your answer in µL/min/mg, writing the number without its unit.

Worked examples, 2 molecules total:
INSERT INTO results (molecule, quantity_measured, reported) VALUES
  ('CN(C)CCNC1COc2ccccc2-c2c(C3CCCCC3)c3ccc(C(=O)O)cc3n2C1 (racemic)', 'microsomal CLint', 7),
  ('CN(C)CCN(C)[C@H]1COc2ccccc2-c2c(C3CCCCC3)c3ccc(C(=O)O)cc3n2C1', 'microsomal CLint', 7);

Q: What value of measured microsomal CLint is listed for CN(C)CCN1CCn2c(c(C3CCCCC3)c3ccc(C(=O)O)cc32)-c2ccccc2C1 ?
A: 100

---

assay: Plasma protein binding in human; type: ADME, cell-free; conditions: read-out: PPB (converted)
Quantity Measured: fraction unbound
Just the number.

Q: What value of measured fraction unbound is listed for CN(C)CCN(C)[C@H]1COc2ccccc2-c2c(C3CCCCC3)c3ccc(C(=O)O)cc3n2C1 ?
A: 0.031

---

assay: Oral bioavailability in Sprague-Dawley rat at 3 mg/kg; assay type: ADME, organism-based; details: in vivo
Quantity Measured: bioavailability

INSERT INTO assay_data (compound, reported) VALUES
  ('CN(C)CCNC1COc2ccccc2-c2c(C3CCCCC3)c3ccc(C(=O)O)cc3n2C1 (racemic)', '20%');

Turning now to a further compound:
Q: What value of measured bioavailability is listed for CN(C)CCN(C)[C@H]1COc2ccccc2-c2c(C3CCCCC3)c3ccc(C(=O)O)cc3n2C1 ?
A: 49%

---

experiment: Volume of distribution at steady state in Sprague-Dawley rat at 3 mg/kg, iv and 3 mg/kg, po; format: ADME, organism-based; settings: in vivo, read-out: Vdss
Quantity Measured: Vd (L/kg)
Express your answer in L/kg, writing the number without its unit.

Q: What value of measured Vd is listed for CN(C)CCN(C)[C@H]1COc2ccccc2-c2c(C3CCCCC3)c3ccc(C(=O)O)cc3n2C1 ?
A: 3.7

---

tested on: Hepatitis C virus; test: Ratio of EC50 for HCV1b to EC50 for HCV1b in presence of 50% normal human serum; format: functional, Hepacivirus hominis, genotype 1b
Quantity Measured: Ratio EC50

Worked examples, 2 molecules total:
INSERT INTO assay_data (molecule, target_of_assay, reported) VALUES
  ('NCCNC1COc2ccccc2-c2c(C3CCCCC3)c3ccc(C(=O)O)cc3n2C1 (racemic)', 'Hepatitis C virus', 4),
  ('CC(C)N(CCN(C)C)C1COc2ccccc2-c2c(C3CCCCC3)c3ccc(C(=O)O)cc3n2C1 (racemic)', 'Hepatitis C virus', 7);

Q: What value of measured Ratio EC50 is listed for CN(C)CCO[C@@H]1COc2ccccc2-c2c(C3CCCCC3)c3ccc(C(=O)O)cc3n2C1 ?
A: 6

Q: What value of measured Ratio EC50 is listed for CN1CCC(NC2COc3ccccc3-c3c(C4CCCCC4)c4ccc(C(=O)O)cc4n3C2)CC1 (racemic) ?
A: 4

---

Entries and their Ratio EC50
tested on: Hepatitis C virus; test: Ratio of EC50 for HCV1b to EC50 for HCV1b in presence of 50% normal human serum; assay type: functional, Hepacivirus hominis, genotype 1b
Just the number.

Q: What value of measured Ratio EC50 is listed for CN(C)C1COc2ccccc2-c2c(C3CCCCC3)c3ccc(C(=O)O)cc3n2C1 (racemic) ?
A: 4

Q: What value of measured Ratio EC50 is listed for CN(C)CCCNC1COc2ccccc2-c2c(C3CCCCC3)c3ccc(C(=O)O)cc3n2C1 (racemic) ?
A: 4

Q: What value of measured Ratio EC50 is listed for CN(C)CCN(C)[C@@H]1COc2ccccc2-c2c(C3CCCCC3)c3ccc(C(=O)O)cc3n2C1 ?
A: 3

Q: What value of measured Ratio EC50 is listed for CN1CCN(CCN(C)C2COc3ccccc3-c3c(C4CCCCC4)c4ccc(C(=O)O)cc4n3C2)CC1 (racemic) ?
A: 9

Data provenance is ChEMBL document CHEMBL1649090.
